system: männl. Ratte 80-100 g; details: male rat 80-100 g, approximate range
Please go through the items and note down their Näherungsbereich i.v. LD₅₀ männl. Ratte 80-100 g.

Worked examples follow.
// query Quick one: Näherungsbereich i.v. LD₅₀ männl. Ratte 80-100 g of CC(=O)N(CCO)c1c(I)c(C(N)=O)c(I)c(C(=O)NC(CO)C(O)CO)c1I (stereo not shown) [Verbindung 11] ?
// result 15,5-17,5 g I/kg

// query Quick one: Näherungsbereich i.v. LD₅₀ männl. Ratte 80-100 g of CC(=O)N(CC(O)CO)c1c(I)c(C(=O)NCC(O)CO)c(I)c(C(=O)NCC(O)CO)c1I (stereo not shown) [Iohexol] ?
// result 11,5-12,5 g I/kg

// query Quick one: Näherungsbereich i.v. LD₅₀ männl. Ratte 80-100 g of CN(C(=O)CO)c1c(I)c(C(N)=O)c(I)c(C(=O)NC(CO)C(O)CO)c1I (stereo not shown) [Verbindung 41] ?
// result 15-17 g I/kg

// query Quick one: Näherungsbereich i.v. LD₅₀ männl. Ratte 80-100 g of CC(=O)N(CC(O)CO)c1c(I)c(C(N)=O)c(I)c(C(=O)NCC(O)CO)c1I (stereo not shown) [Verbindung 19] ?
// result 13-14 g I/kg

// query Quick one: Näherungsbereich i.v. LD₅₀ männl. Ratte 80-100 g of CC(=O)N(CC(O)CO)c1c(I)c(C(=O)NCCO)c(I)c(C(=O)NCC(O)CO)c1I (stereo not shown) [Ioxilan, reference compound] ?
// result 12-13 g I/kg

Okay, here is my list. What is Näherungsbereich i.v. LD₅₀ männl. Ratte 80-100 g for each of these?
1. COCC(=O)Nc1c(I)c(C(=O)NCC(O)CO)c(I)c(C(=O)N(C)CC(O)CO)c1I (stereo not shown) [Iopromid]
2. C[C@H](O)C(=O)Nc1c(I)c(C(=O)NC(CO)CO)c(I)c(C(=O)NC(CO)CO)c1I [Iopamidol]

// result
1. 11-12 g I/kg
2. 12-13 g I/kg
